System: sugar beet
measurement_protocol: Test B pre/postemergence sugar beet
Assay type: in vivo, Beta vulgaris
condition_details: Preemergence, Rate 125 g/ha; 0 is no effect, 10 is complete control
metric_name: Sugarbeets plant response rating (0 to 10 scale)

{"columns": ["structure", "reported_value"],
 "data": [
  ["Cc1ccccc1-n1c(=O)on(C(=O)N(c2ccc(F)cc2Cl)C(C)C)c1=O", 0],
  ["Cc1noc(C)c1-n1c(=O)on(C(=O)N(c2ccc(F)cc2F)C(C)C)c1=O", 0],
  ["CCN(Cc1ccccc1)C(=O)n1oc(=O)n(C(C)C)c1=O", 0],
  ["CC(C)N(C(=O)n1oc(=O)n(C(C)C)c1=O)c1ccccc1", 8],
  ["CC(C)N(C(=O)n1oc(=O)n(Cc2ccccc2Cl)c1=O)C1=CCCCC1", 0]
]}

====

System: corn
measurement_protocol: Test B pre/postemergence corn
Type: in vivo, Zea mays
condition_details: Preemergence, Rate 250 g/ha; scale 0 to 10, 0 is no effect, 10 is complete control
Listed below: Corn plant response rating values for each entry.

{"columns": ["compound", "Corn plant response rating"],
 "data": [
  ["CC(C)N(C(=O)n1oc(=O)n(CC#N)c1=O)c1ccc(F)cc1 [Compound 395]", 0],
  ["Cc1nsc(C)c1-n1c(=O)on(C(=O)N(c2ccc(F)cc2F)C(C)C)c1=O [Compound 158]", 2],
  ["Cc1noc(C)c1-n1c(=O)on(C(=O)N(c2ccc(F)cc2F)C(C)C)c1=O [Compound 156]", 0],
  ["CC(C)N(C(=O)n1oc(=O)n(COC(=O)C(C)(C)C)c1=O)c1ccc(F)cc1 [Compound 462]", 0],
  ["Cc1ccccc1-n1c(=O)on(C(=O)N(c2cccc(F)c2F)C(C)C)c1=O [Compound 171]", 0],
  ["CC(C)Cn1c(=O)on(C(=O)N(c2ccccc2)C(C)C)c1=O [Compound 410]", 4]
]}

====

System: morningglory
measurement_protocol: Test B pre/postemergence morningglory
Format: in vivo, Ipomoea hederacea
condition_details: Postemergence, Rate 62 g/ha; scale 0 to 10, 0 is no effect, 10 is complete control
Listed below: Morningglory plant response rating values for each entry.

{"columns": ["structure", "Morningglory plant response rating"],
 "data": [
  ["Cc1ccccc1Cn1c(=O)on(C(=O)N(C)c2ccccc2)c1=O", 0],
  ["CN(C(=O)n1oc(=O)n(Cc2cccs2)c1=O)c1ccccc1", 0],
  ["Cc1ccc(-n2c(=O)on(C(=O)N(c3ccc(F)cc3F)C(C)C)c2=O)c(C)c1", 9],
  ["CCN(Cc1ccccc1)C(=O)n1oc(=O)n(-c2ccccc2C)c1=O", 0],
  ["COc1ccc(-n2c(=O)on(C(=O)N(c3ccc(F)cc3)C(C)C)c2=O)c(OC)c1", 3]
]}

====

Listed below: Plant response rating, Morningglory values for each entry.
Tested on: morningglory
measurement_protocol: Test B pre/postemergence morningglory
Type: in vivo, Ipomoea hederacea
condition_details: Preemergence, Rate 125 g/ha; scale of 0 to 10 where 0 is no effect and 10 is complete control

{"columns": ["compound", "Plant response rating, Morningglory"],
 "data": [
  ["CC(C)N(C(=O)n1oc(=O)n(C(C)C#N)c1=O)c1ccccc1 (stereo not shown)", 0],
  ["CC(C)N(C(=O)n1oc(=O)n(C(C)C2=NOCC2)c1=O)c1ccccc1 (racemic)", 0],
  ["CC(C)N(C(=O)n1oc(=O)n(C[C@H](C)Cl)c1=O)c1ccc(F)cc1F", 2],
  ["CCOP(=O)(Cn1c(=O)on(C(=O)N(c2ccccc2)C(C)C)c1=O)OCC", 0],
  ["CC(C)N(C(=O)n1oc(=O)n(COC(=O)C(C)(C)C)c1=O)c1ccc(F)cc1", 0],
  ["CCn1ncc(Cn2c(=O)on(C(=O)N(c3ccc(F)cc3F)C(C)C)c2=O)c1Cl", 0],
  ["CC(C)N(C(=O)n1oc(=O)n(C(CF)CCl)c1=O)c1ccc(F)cc1 (racemic)", 3]
]}
